Test: pharmacokinetic study in SD rats
Format: in vivo
Details: female, SD, rat, in vivo, po, 5 mg/kg
Value type: Cmax (ng/mL)
Use ng/mL as the unit, but write only the number.

Given item C[C@H]1COC2(CCN(c3nc(=O)c4cc(C(F)(F)F)cc([N+](=O)[O-])c4s3)CC2)O1 [BTZ043] , the value recorded as its Cmax is 543

* * *

Assay: pharmacokinetic study in SD rats
Assay type: in vivo
Conditions: female, rat, plasma, po; SD rats, p.o., 5 mg/kg; read-out: Tmax
Value type: Tmax (h)
Use h as the unit, but write only the number.

Given item O=[N+]([O-])c1cc(C(F)(F)F)cc2c(=S)nc(N3CCC4(CC3)OCCO4)sc12 , the value recorded as its Tmax is 1.13

* * *

System: XDR-TB clinical isolates
Experiment: microbe, parasite or virus in culture
Format: cell-based, Mycobacterium tuberculosis
Conditions: Mycobacterium tuberculosis, read-out: MIC, XDR-TB strain X15
Recorded MIC, one value per entry.

// worked examples, MIC included
• CC[C@@H](CO)NCCN[C@@H](CC)CO [EMB, ethambutol] = 16 µg/mL
• NCC[C@H](O)C(=O)N[C@@H]1C[C@H](N)[C@@H](O[C@H]2O[C@H](CN)[C@@H](O)[C@H](O)[C@H]2O)[C@H](O)[C@H]1O[C@H]1O[C@H](CO)[C@@H](O)[C@H](N)[C@H]1O [AMK, amikacin] = 64 µg/mL
• NNC(=O)c1ccncc1 [INH, isoniazid] = 16 µg/mL

Given item O=[N+]([O-])c1cc(C(F)(F)F)cc2c(=S)nc(N3CCC4(CC3)OCCO4)sc12 [SKLB-TB1001] , the value recorded as its MIC is < 0.0156 µg/mL

* * *

Recorded MIC, one value per entry.
Tested on: XDR-TB clinical isolates
Assay: microbe, parasite or virus in culture
Format: cell-based, Mycobacterium tuberculosis
Conditions: Mycobacterium tuberculosis, read-out: MIC, XDR-TB strain X15
Just so you know, I need the unit written after the number.

// worked examples, MIC included
- CC1COc2c(N3CCN(C)CC3)c(F)cc3c(=O)c(C(=O)O)cn1c23 (stereo not drawn): 8 µg/mL
- [H]/N=C(/N)N[C@H]1[C@H](O)[C@@H](O)[C@H](O[C@@H]2O[C@@H](C)[C@](O)(C=O)[C@H]2O[C@@H]2O[C@@H](CO)[C@H](O)[C@@H](O)[C@@H]2NC)[C@@H](N/C(N)=N\[H])[C@@H]1O: 8 µg/mL

Now consider a different compound.
Given item CO[C@H]1/C=C/O[C@@]2(C)Oc3c(C)c(O)c4c(O)c(c(/C=N/N5CCN(C)CC5)c(O)c4c3C2=O)NC(=O)/C(C)=C\C=C\[C@H](C)[C@H](O)[C@@H](C)[C@@H](O)[C@@H](C)[C@H](OC(C)=O)[C@@H]1C , the value recorded as its MIC is 64 µg/mL

* * *

Tested on: MDR-TB clinical isolates
Assay: microbe, parasite or virus in culture
Type: cell-based
Settings: Mycobacterium tuberculosis, read-out: MIC, MDR-TB strain M8
Value type: MIC (µg/mL)
Use µg/mL as the unit, but write only the number.

• CO[C@H]1/C=C/O[C@@]2(C)Oc3c(C)c(O)c4c(O)c(c(/C=N/N5CCN(C)CC5)c(O)c4c3C2=O)NC(=O)/C(C)=C\C=C\[C@H](C)[C@H](O)[C@@H](C)[C@@H](O)[C@@H](C)[C@H](OC(C)=O)[C@@H]1C = 64

Given item CC[C@@H](CO)NCCN[C@@H](CC)CO , the value recorded as its MIC is 4

Given item [H]/N=C(/N)N[C@H]1[C@H](O)[C@@H](O)[C@H](O[C@@H]2O[C@@H](C)[C@](O)(C=O)[C@H]2O[C@@H]2O[C@@H](CO)[C@H](O)[C@@H](O)[C@@H]2NC)[C@@H](N/C(N)=N\[H])[C@@H]1O , the value recorded as its MIC is 64

Given item NNC(=O)c1ccncc1 , the value recorded as its MIC is 4

// provenance: paper PMC4942819
